Test system: normal primary NK cells, pool 1 (3 donors), resting (IL-2 0 ng/mL)
Assay Method Text: drug sensitivity score (DSS) (DSS units); higher = more sensitive; extreme values may be limits of the assay
Experimental Setup: 72 h
Kindly supply the reported drug sensitivity score values for the records listed here.
Just the number, please, no unit attached.

Need drug sensitivity score, item Cn1c(CCCC(=O)O)nc2cc(N(CCCl)CCCl)ccc21 [Bendamustine] (max concentration tested 10000 nM)
4.14

Need drug sensitivity score, item C[C@@H]1CN(CC(=O)Nc2ccc3c(c2)Cc2cccc(-c4cc(=O)cc(N5CCOCC5)o4)c2S3)C[C@H](C)O1 (max concentration tested 25000 nM)
8.7

Need drug sensitivity score, item C=CCN(/C=C1/C(=O)O[C@H](COC)[C@@]2(C)C1=C(O)C(=O)C1=C2[C@H](OC(C)=O)C[C@]2(C)C(=O)CC[C@@H]12)CC=C [Sonolisib] (max concentration tested 10000 nM)
5.24
